Species: Rattus norvegicus
procedure_text: Positive allosteric modulation of rat cortex AMPA receptor expressed in Xenopus laevis oocytes assessed as concentration required to 2 fold potentiation of (S)-AMPA-induced current amplitude by voltage clamp technique
Assay type: cell-based
reported_property: log10 of Activity (log10 of the value in µM)
Could you please treat all values as log10 of Activity in µM?

{"columns": ["structure_smiles_string", "assay_value"],
 "data": [
  ["CN1C=NS(=O)(=O)c2c(Cl)sc(Cl)c21", 1.91]
]}

What does the record list as log10 of Activity for `CCN1C=NS(=O)(=O)c2c(Cl)sc(Cl)c21` ?
1.62

Form field: reported log10 of Activity of `O=S1(=O)NCN(CC(F)F)c2cc(Cl)sc21`
0.20

====

Organism: Rattus norvegicus
procedure_text: Positive allosteric modulation of rat cortex AMPA receptor expressed in Xenopus laevis oocytes assessed as concentration required to 2 fold potentiation of (S)-AMPA-induced current amplitude by voltage clamp technique
Format: cell-based
# Activity per record follows
A number alone suffices; assume µM.

Recorded results for 5 molecules are shown here.
{"columns": ["structure_smiles_string", "Activity / µM"],
 "data": [
  ["O=S1(=O)NCN(CCF)c2c(Cl)sc(Cl)c21", 113],
  ["O=S1(=O)NCN(CCF)c2cc(Cl)sc21", 2],
  ["O=S1(=O)NCNc2c(Cl)sc(Cl)c21", 72],
  ["O=S1(=O)NCN(CCCF)c2cc(Cl)sc21", 12],
  ["O=S1(=O)NCNc2cc(Cl)sc21", 216]
]}

Endpoint output: Activity of `O=S1(=O)NCN(CC(F)F)c2c(Cl)sc(Cl)c21` . Value?
235

Record request: Activity value, item `O=S1(=O)N=CN(CCF)c2c(Cl)sc(Cl)c21`
26.5

====

Organism: Rattus norvegicus
procedure_text: Positive allosteric modulation of rat cortex AMPA receptor expressed in Xenopus laevis oocytes assessed as potentiation of (S)-AMPA-induced current amplitude at 10 uM by voltage clamp technique relative to (S)-AMPA
Type: cell-based
This listing pairs compounds with measured Emax.

In the examples that follow, each entry is paired with its recorded Emax.
{"columns": ["structure_smiles_string", "Emax"],
 "data": [
  ["CCCN1CNS(=O)(=O)c2c(Cl)sc(Cl)c21", "> 126%"],
  ["CN1CNS(=O)(=O)c2sc(Cl)cc21", "> 462%"],
  ["O=S1(=O)NCN(CCF)c2c(Cl)sc(Cl)c21", "> 485%"],
  ["O=S1(=O)N=CN(CCF)c2c(Cl)sc(Cl)c21", "> 2330%"],
  ["CCN1CNS(=O)(=O)c2c(Cl)sc(Cl)c21", "> 955%"]
]}

Dear colleague, I am looking for the recorded Emax of the following compound: `O=S1(=O)NCN(CCCF)c2cc(Cl)sc21`
> 3780%

Give its Emax value. Item: `CC(C)N1C=NS(=O)(=O)c2sc(Cl)cc21`
> 277%

Recorded Emax for `O=S1(=O)N=CN(CCCF)c2cc(Cl)sc21` , please?
107%

For the compound `O=S1(=O)NCN(CC(F)F)c2cc(Cl)sc21` , what Emax is on record?
2560%

I'd like to know its Emax. The compound in question is `O=S1(=O)NCNc2c(Cl)sc(Cl)c21`
> 973%

====

Organism: Rattus norvegicus
procedure_text: Positive allosteric modulation of rat cortex AMPA receptor expressed in Xenopus laevis oocytes assessed as potentiation of (S)-AMPA-induced current amplitude at 10 uM by voltage clamp technique relative to (S)-AMPA
Format: cell-based
Entries and their measured Emax follow.
Number in %, nothing else.

{"columns": ["structure_smiles_string", "assay_value"],
 "data": [
  ["O=S1(=O)N=CN(CCF)c2cc(Cl)sc21", 204]
]}

Entry under review: `O=S1(=O)NCNc2cc(Cl)sc21` . Reported Emax?
253

Bench note: what Emax did `CC(C)N1CNS(=O)(=O)c2sc(Cl)cc21` show?
217

Return reported Emax; argument: `CN1CNS(=O)(=O)c2c(Cl)sc(Cl)c21`
2920

Record request: Emax value, item `CCCN1C=NS(=O)(=O)c2sc(Cl)cc21`
2070

Given the compound `CCCN1CNS(=O)(=O)c2sc(Cl)cc21` , what is its reported Emax?
2090

====

procedure_text: Positive allosteric modulation of rat cortex AMPA receptor expressed in Xenopus laevis oocytes assessed as potentiation of (S)-AMPA-induced current amplitude by voltage clamp technique
Assay type: cell-based
reported_property: EC50
# number then unit; no other words

{"columns": ["structure_smiles_string", "EC50"],
 "data": [
  ["CCN1CNS(=O)(=O)c2sc(Cl)cc21", "9.2 µM"]
]}

Find the recorded EC50 belonging to `CCN1CNS(=O)(=O)c2cc(Cl)sc21` and report it.
11 µM

====

Species: Rattus norvegicus
procedure_text: Positive allosteric modulation of rat brain AMPA receptor assessed as potentiation of 2 fold of (S)-AMPA-induced current amplitude by FlipR method
reported_property: Activity

{"columns": ["structure_smiles_string", "Activity"],
 "data": [
  ["O=S1(=O)N=CN(CCF)c2cc(Cl)sc21", "> 100 µM"],
  ["CCN1C=NS(=O)(=O)c2cc(Cl)sc21", "> 100 µM"],
  ["O=S1(=O)N=CN(CC(F)F)c2c(Cl)sc(Cl)c21", "> 100 µM"]
]}

Report Activity for `CC(C)N1CNS(=O)(=O)c2sc(Cl)cc21` please.
9.55 µM

Which Activity reading was recorded for the compound `O=S1(=O)N=CN(CF)c2cc(Cl)sc21` ?
> 100 µM

Fill blank: measured Activity of the compound `O=S1(=O)N=CN(CCF)c2c(Cl)sc(Cl)c21` is ____.
20.3 µM

Which measured Activity value corresponds to `O=S1(=O)NCNc2cc(Cl)sc21` ?
> 100 µM

Given the compound `CC(C)N1C=NS(=O)(=O)c2sc(Cl)cc21` , what is its reported Activity?
> 100 µM

====

Organism: Rattus norvegicus
procedure_text: Positive allosteric modulation of rat cortex AMPA receptor expressed in Xenopus laevis oocytes assessed as concentration required to 2 fold potentiation of (S)-AMPA-induced current amplitude by voltage clamp technique
Type: cell-based
Entries annotated with measured Activity

Entry `CN1C=NS(=O)(=O)c2sc(Cl)cc21` has what Activity?
> 166 µM

Could you share which Activity value was measured for `CCCN1CNS(=O)(=O)c2c(Cl)sc(Cl)c21` ?
> 300 µM

# Activity lookup, item `CN1CNS(=O)(=O)c2sc(Cl)cc21`
36 µM

I'd like to know its Activity. The molecule in question is `O=S1(=O)N=CN(CCCF)c2cc(Cl)sc21`
> 300 µM

Would you kindly share the measured Activity for `O=S1(=O)N=CNc2c(Cl)sc(Cl)c21` ?
> 100 µM

Dear colleague, I am looking for the recorded Activity of the following molecule: `CCN1C=NS(=O)(=O)c2sc(Cl)cc21`
172 µM

Which Activity value is on record for `CCCN1CNS(=O)(=O)c2sc(Cl)cc21` ?
15 µM

Data request, read-out Activity, for `CC(C)N1C=NS(=O)(=O)c2sc(Cl)cc21`
> 100 µM

====

Species on record: Rattus norvegicus
procedure_text: Positive allosteric modulation of rat cortex AMPA receptor expressed in Xenopus laevis oocytes assessed as concentration required to 2 fold potentiation of (S)-AMPA-induced current amplitude by voltage clamp technique
Type: cell-based
Reported values of Activity for individual entries
Kindly provide the numeric value in µM only, without the unit symbol.

Sample records with Activity:
{"columns": ["structure_smiles_string", "Activity (µM)"],
 "data": [
  ["CN1CNS(=O)(=O)c2c(Cl)sc(Cl)c21", 5.4],
  ["CCN1CNS(=O)(=O)c2sc(Cl)cc21", 3.6]
]}

Need Activity, item `CCN1CNS(=O)(=O)c2cc(Cl)sc21`
4.4

Tell me the measured Activity of `CC(C)N1CNS(=O)(=O)c2sc(Cl)cc21` , please.
4.2

What measured Activity goes with `CCN1CNS(=O)(=O)c2c(Cl)sc(Cl)c21` ?
71

====

In this section we review reported Emax values for a set of compounds.
Species on record: Rattus norvegicus
procedure_text: Positive allosteric modulation of rat cortex AMPA receptor expressed in Xenopus laevis oocytes assessed as potentiation of (S)-AMPA-induced current amplitude at 10 uM by voltage clamp technique relative to (S)-AMPA
Type: cell-based
Return type: number; implicit unit %.

Quick one: Emax for `O=S1(=O)NCN(CCF)c2cc(Cl)sc21` ?
5600

May I ask what Emax has been recorded for `CCN1CNS(=O)(=O)c2sc(Cl)cc21` ?
2270

Reported Emax, compound `CCN1CNS(=O)(=O)c2cc(Cl)sc21` : ____
2830

====

Species on record: Rattus norvegicus
procedure_text: Positive allosteric modulation of rat brain AMPA receptor assessed as potentiation of 2 fold of (S)-AMPA-induced current amplitude by FlipR method
reported_property: Activity

{"columns": ["structure_smiles_string", "Activity"],
 "data": [
  ["O=S1(=O)N=CN(CC(F)F)c2cc(Cl)sc21", "100 µM"],
  ["O=S1(=O)NCNc2c(Cl)sc(Cl)c21", "> 100 µM"],
  ["CN1C=NS(=O)(=O)c2sc(Cl)cc21", "> 100 µM"],
  ["CCCN1C=NS(=O)(=O)c2c(Cl)sc(Cl)c21", "> 100 µM"],
  ["O=S1(=O)NCN(CCCF)c2cc(Cl)sc21", "> 45.7 µM"]
]}

What does the data say about its Activity? Entry: `O=S1(=O)N=CN(CCCF)c2cc(Cl)sc21`
100 µM

Which Activity reading was recorded for the compound `O=S1(=O)NCN(CCF)c2c(Cl)sc(Cl)c21` ?
> 100 µM

Request the reported Activity associated with `CCN1CNS(=O)(=O)c2cc(Cl)sc21`
10.4 µM

Look up Activity: `CCCN1C=NS(=O)(=O)c2sc(Cl)cc21`
> 100 µM

Could you share which Activity value was measured for `CCN1C=NS(=O)(=O)c2sc(Cl)cc21` ?
> 100 µM

Look up Activity for this compound: `O=S1(=O)NCN(CCF)c2cc(Cl)sc21`
3.32 µM
